Origin of measurements: patent US12522607B2

Consider the following IC50 values measured on Wee-1 kinase (Homo sapiens).

# compound-smiles, IC50
rows = [
    ("C=CCn1c(=O)c2cnc(Nc3ccc(N4CC5(CCNCC5)C4)c(OC)c3)nc2n1-c1ccc(=O)n(C(C)C)n1", "0.03 to 0.1 µM"),
    ("C=CCn1c(=O)c2cnc(Nc3ccc(N4CCN(C5CC5)CC4)cc3)nc2n1-c1ccc(=O)n(C(C)C)n1", "≤ 0.03 µM"),
    ("C=CCn1c(=O)c2cnc(Nc3ccc(N4CCC(N)CC4)c(OC)c3)nc2n1-c1ccc(=O)n(C(C)C)n1", "≤ 0.03 µM"),
    ("C=CCn1c(=O)c2cnc(Nc3ccc(N4CC5(CNC5)C4)c(C)c3)nc2n1-c1ccc(=O)n(C(C)C)n1", "≤ 0.03 µM"),
]

q: Value wanted: IC50 (Wee-1 kinase (Homo sapiens)) of entry `C=CCn1c(=O)c2cnc(Nc3ccc(N4CCN(C)CC4)c(C)c3)nc2n1-c1ccc(=O)n(C(C)(C)C)n1`
a: ≤ 0.03 µM

q: Field: IC50 (Wee-1 kinase (Homo sapiens)). Entry: `C=CCn1c(=O)c2cnc(Nc3ccc(N4CCC(N5CCOCC5)CC4)cc3)nc2n1-c1ccc(=O)n(C(C)C)n1`
a: ≤ 0.03 µM

q: Request: IC50, test system Wee-1 kinase (Homo sapiens), entry `CCn1c(=O)c2cnc(Nc3ccc(N4CCN(C)CC4)cc3)nc2n1-c1ccc(=O)n(C(C)C)c1`
a: ≤ 0.03 µM

q: Please state recorded IC50 (tested on Wee-1 kinase (Homo sapiens)) of `Cc1cc(Nc2ncc3c(=O)n(C4CC4)n(-c4ccc(=O)n(C(C)(C)C)c4)c3n2)ccc1N1CCN(C)CC1`
a: ≤ 0.03 µM

q: Give the reported IC50 for `C=CCn1c(=O)c2cnc(Nc3ccc4c(c3)CN(C)CC4(C)C)nc2n1-c1ccc(=O)n(C(C)C)n1` (system: Wee-1 kinase (Homo sapiens)).
a: ≤ 0.03 µM

q: So what IC50 did `C=CCn1c(=O)c2cnc(Nc3ccc4c(c3)CN(C)C4)nc2n1-c1ccc(=O)n(C(C)C)n1` get with Wee-1 kinase (Homo sapiens)?
a: ≤ 0.03 µM

q: Query for Wee-1 kinase (Homo sapiens): what IC50 does the record show for `CCn1c(=O)c2cnc(Nc3ccc(N4CCN(C)CC4)cc3)nc2n1-c1cc(F)c(=O)n(C(C)C)c1` ?
a: ≤ 0.03 µM

q: Form field: IC50 recorded for `C=CCn1c(=O)c2cnc(Nc3ccc(N4CCC5(CNC5)C4)c(OC)c3)nc2n1-c1ccc(=O)n(C(C)C)n1` with Wee-1 kinase (Homo sapiens) (enter value)
a: ≤ 0.03 µM

q: Lookup: IC50 / Wee-1 kinase (Homo sapiens) / `C=CCn1c(=O)c2cnc(Nc3ccc(N4CCN(C)CC4)c(C(F)(F)F)c3)nc2n1-c1ccc(=O)n(C(C)C)c1`
a: ≤ 0.03 µM

q: Request - read-out IC50 | tested on Wee-1 kinase (Homo sapiens) | compound `C=CCn1c(=O)c2cnc(Nc3ccc(N4CCC(N5CCN(C)CC5)CC4)c(OC)c3)nc2n1-c1ccc(=O)n(C(C)C)n1`
a: ≤ 0.03 µM

====

target-desc: Wee-1 kinase (Homo sapiens, UniProt P30291)
Construct: purchased Invitrogen
Sequence (P30291 whole entry): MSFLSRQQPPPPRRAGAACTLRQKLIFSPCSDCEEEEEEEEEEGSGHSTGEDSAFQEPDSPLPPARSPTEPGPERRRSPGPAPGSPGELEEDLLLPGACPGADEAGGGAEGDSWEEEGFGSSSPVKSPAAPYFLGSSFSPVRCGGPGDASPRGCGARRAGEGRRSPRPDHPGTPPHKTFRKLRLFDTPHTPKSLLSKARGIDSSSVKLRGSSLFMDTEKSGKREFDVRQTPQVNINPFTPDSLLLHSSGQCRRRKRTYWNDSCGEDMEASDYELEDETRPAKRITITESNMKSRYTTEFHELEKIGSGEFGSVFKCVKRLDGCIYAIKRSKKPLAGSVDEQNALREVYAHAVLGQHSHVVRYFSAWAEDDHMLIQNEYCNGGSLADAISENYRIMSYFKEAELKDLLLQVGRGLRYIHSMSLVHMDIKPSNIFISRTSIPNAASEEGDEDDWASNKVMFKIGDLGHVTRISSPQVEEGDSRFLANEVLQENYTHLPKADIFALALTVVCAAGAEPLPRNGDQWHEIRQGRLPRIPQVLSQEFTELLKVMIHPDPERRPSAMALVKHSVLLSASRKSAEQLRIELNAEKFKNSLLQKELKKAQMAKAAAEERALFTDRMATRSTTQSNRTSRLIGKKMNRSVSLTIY
assay-explanation: Inhibitory activity against Wee-1 kinase (Lanthra Screen Wee-1 kinase kit, Tracer 178)
Assay type: binding
run-conditions: Wee-1 kinase 5 nM, Tracer 178 50 nM, 1 h room temperature
Procedure: Example 342. Assay for Inhibitory Activity of Compounds Against Wee-1 Kinase The inhibitory activity of compounds against Wee-1 kinase was determined by using the Lanthra Screen Wee-1 kinase kit (Invitrogen). […] The plate was read after incubation at room temperature for one hour. For comparison with the DMSO solvent control group, IC50 for the inhibition activity of the compounds against Wee-1 kinase was calculated.
pIC50: −log10 of the molar value.
measurement-type: pIC50

Consider the following illustrative entries.
# compound-smiles, pIC50
measured = [
    ("CCn1c(=O)c2cnc(Nc3ccc(N4CCN(C)CC4)c(C)c3)nc2n1-c1ccc(=O)n(C(C)C)n1", "≥ 7.52"),
    ("C=CCn1c(=O)c2cnc(Nc3ccc(N4CCC(N5CCC(F)(F)CC5)CC4)c(C)c3)nc2n1-c1ccc(=O)n(C(C)C)n1", "≥ 7.52"),
    ("C=CCn1c(=O)c2cnc(Nc3cc(C)c(N4CCN(C)CC4)c(F)c3)nc2n1-c1ccc(=O)n(C(C)C)n1", "≥ 7.52"),
]

Now for the compound whose pIC50 we want.
q: Which value of pIC50 has been reported for `C=CCn1c(=O)c2cnc(Nc3ccc(N4CCN(C)CC4)cc3)nc2n1-c1ccc(=O)n(CC2CCC2)n1` in the records?
a: 7.00 to 7.52

====

Reported Tmax values follow for various compounds
assay-explanation: Pharmacokinetic evaluation in mice
Format: in vivo, male ICR mice
run-conditions: male, ICR, mouse, plasma, po, 10 mg/kg, 0.5% CMC-Na suspension
Write the value in min as a bare number.

# compound, meas-value
rows = [
    ("C=CCn1c(=O)c2cnc(Nc3ccc(N4CCN(C)CC4)cc3)nc2n1-c1cccc(C(C)(C)O)n1 [AZD-1775, reference compound]", 30),
]

Next up:
q: Given the compound `C=CCn1c(=O)c2cnc(Nc3ccc(N4CCN(C)CC4)cc3)nc2n1-c1ccc(=O)n(C(C)C)n1` , what is its reported Tmax?
a: 15

====

Each item that follows carries a reported pIC50.
target-desc: Wee-1 kinase (Homo sapiens, UniProt P30291)
pIC50: −log10 of the molar value.

A selection of reference data follows.
# molecule, pIC50
data = [
    ("CN1CCN(c2ccc(Nc3ncc4c(=O)n(C5CC5)n(-c5ccc(=O)n(C(C)(C)C)n5)c4n3)cc2)CC1 [Compound 292]", "≥ 7.52"),
    ("CC(C)n1c(=O)c2cnc(Nc3ccc4c(c3)CN(C)CC43CC3)nc2n1-c1ccc(=O)n(C(C)(C)C)n1 [Compound 291]", "≥ 7.52"),
    ("C=CCn1c(=O)c2cnc(Nc3ccc(C4CCN(C)CC4)c(OC)c3)nc2n1-c1ccc(=O)n(C(C)C)n1 [Compound 195]", "≥ 7.52"),
    ("CCn1c(=O)c2cnc(Nc3ccc4c(c3)CN(C)CC43CC3)nc2n1-c1cc(F)c(=O)n(C(C)C)c1 [Compound 318]", "≥ 7.52"),
    ("C=CCn1c(=O)c2cnc(Nc3ccc(N4CCC(C)(N(C)C)CC4)c(C)c3)nc2n1-c1ccc(=O)n(C(C)C)n1 [Compound 114]", "≥ 7.52"),
]

q: GET /values?readout=pIC50&item= C=CCn1c(=O)c2cnc(Nc3ccc4c(c3)CN(C)CC43CC3)nc2n1-c1cc(F)c(=O)n(C(C)C)c1 [Compound 314]
a: ≥ 7.52

q: Which value of pIC50 has been reported for C=CCn1c(=O)c2cnc(Nc3ccc(N4CCC(N5CCC5)CC4)c(C)c3)nc2n1-c1ccc(=O)n(C(C)C)n1 [Compound 87] in the records?
a: ≥ 7.52

====

assay-explanation: Pharmacokinetic evaluation in mice
Format: in vivo, male ICR mice
run-conditions: male, ICR, mouse, plasma, po, 10 mg/kg, 0.5% CMC-Na suspension
measurement-type: AUC(0-t) (ng·h/mL)
Reply with just the number (in ng·h/mL).

# compound, measurement-type, meas-value
rows = [
    ("C=CCn1c(=O)c2cnc(Nc3ccc(N4CCN(C)CC4)cc3)nc2n1-c1ccc(=O)n(C(C)C)n1", "AUC(0-t)", 1210),
]

Please look at the following compound next.
q: Dear colleague, I am looking for the recorded AUC(0-t) of the following compound: C=CCn1c(=O)c2cnc(Nc3ccc(N4CCN(C)CC4)cc3)nc2n1-c1cccc(C(C)(C)O)n1 [AZD-1775, reference compound]
a: 215

====

Item-by-item account of AUC(0-t)
assay-explanation: Pharmacokinetic evaluation in mice
Assay type: in vivo, male ICR mice
run-conditions: male, ICR, mouse, plasma, iv, 2 mg/kg
Report the figure in ng·h/mL without appending any unit label.

# compound, AUC(0-t), ng·h/mL
rows = [
    ("C=CCn1c(=O)c2cnc(Nc3ccc(N4CCN(C)CC4)cc3)nc2n1-c1cccc(C(C)(C)O)n1 [AZD-1775, reference compound]", 152),
]

Continue with the next compound.
q: Give its AUC(0-t) value. Item: `C=CCn1c(=O)c2cnc(Nc3ccc(N4CCN(C)CC4)cc3)nc2n1-c1ccc(=O)n(C(C)C)n1`
a: 736

====

target-desc: Wee-1 kinase (Homo sapiens, UniProt P30291)
pIC50: −log10 of the molar value.
measurement-type: pIC50

Consider the worked cases shown below.
# compound-smiles, target-desc, meas-value
rows = [
    ("C=CCn1c(=O)c2cnc(Nc3ccc(N4CC5(CNC5)C4)cc3)nc2n1-c1ccc(=O)n(C(C)C)n1", "Wee-1 kinase (Homo sapiens, UniProt P30291)", "≥ 7.52"),
    ("C=CCn1c(=O)c2cnc(Nc3ccc(N4CCC5(CNC5)C4)c(C)c3)nc2n1-c1ccc(=O)n(C(C)C)n1", "Wee-1 kinase (Homo sapiens, UniProt P30291)", "≥ 7.52"),
    ("C=CCn1c(=O)c2cnc(Nc3cc(F)c(N4CCNCC4)c(OC)c3)nc2n1-c1ccc(=O)n(C(C)C)n1", "Wee-1 kinase (Homo sapiens, UniProt P30291)", "≥ 7.52"),
    ("C=CCn1c(=O)c2cnc(Nc3ccc(N4CCN(C)CC4)cc3)nc2n1-c1cc(OC)c(=O)n(C(C)C)c1", "Wee-1 kinase (Homo sapiens, UniProt P30291)", "7.00 to 7.52"),
    ("C=CCn1c(=O)c2cnc(Nc3ccc(N4CCC(N(C)C)CC4)cc3)nc2n1-c1ccc(=O)n(C(C)C)n1", "Wee-1 kinase (Homo sapiens, UniProt P30291)", "≥ 7.52"),
    ("Cc1cc(Nc2ncc3c(=O)n(C4CC4)n(-c4ccc(=O)n(C(C)(C)C)n4)c3n2)ccc1N1CCN(C)CC1", "Wee-1 kinase (Homo sapiens, UniProt P30291)", "≥ 7.52"),
]

Alright, here's another compound for you.
q: Given `C=CCn1c(=O)c2cnc(Nc3ccc(N4CCC(N5CCN(C)CC5)CC4)c(C)c3)nc2n1-c1ccc(=O)n(C(C)C)n1` , state its recorded pIC50.
a: ≥ 7.52
